Test system: HeLa-GFP cells
method: HeLa-GFP fluorometric cytotoxicity assay
particulars: 2 μg/ml, 18 h incubation, relative to untreated (DMSO) cells
// NB: equality with 80% counts as class 0; only Percent-GFP-fluorescence after incubation with test compounds, HeLa-GFP (2 μg/ml) strictly below is class 1

Previously resolved entries follow.
| compound | label.class |
| --- | --- |
| CCCCCCC1=CC(=O)c2ccccc2C1=O | class 0 |
| CCOC(=O)c1ccc(C2=C(CN(C(=O)OC(C)(C)C)C(=O)OC(C)(C)C)C(=O)c3ccccc3C2=O)cc1 | class 0 |
| O=C1c2ccccc2C(=O)C2(c3ccccc3)OC12c1ccccc1 (stereo not shown) | class 1 |
| CCCC12OC1(CC)C(=O)c1ccccc1C2=O (stereo not shown) | class 1 |

IN: Please state whether Percent-GFP-fluorescence after incubation with test compounds, HeLa-GFP (2 μg/ml) is below 80% for COC(=O)c1ccccc1C1=C(CN(C(=O)OC(C)(C)C)C(=O)OC(C)(C)C)C(=O)c2ccccc2C1=O
OUT: class 0

IN: Please state whether Percent-GFP-fluorescence after incubation with test compounds, HeLa-GFP (2 μg/ml) is below 80% for CC12OC1(c1ccccc1)C(=O)c1ccccc1C2=O (stereo not shown)
OUT: class 1

IN: Please state whether Percent-GFP-fluorescence after incubation with test compounds, HeLa-GFP (2 μg/ml) is below 80% for O=C1C=CC(=O)c2c(O)ccc(O)c21 [Compound Q3, naphthazarin, reference compound]
OUT: class 1

IN: Please state whether Percent-GFP-fluorescence after incubation with test compounds, HeLa-GFP (2 μg/ml) is below 80% for COc1ccc(CC(=O)n2nnc(C3=C(CO)C(=O)c4ccccc4C3=O)c2CO)cc1
OUT: class 0

IN: Please state whether Percent-GFP-fluorescence after incubation with test compounds, HeLa-GFP (2 μg/ml) is below 80% for CCCCCC1=C(C)C(=O)c2ccccc2C1=O
OUT: class 0

IN: Please state whether Percent-GFP-fluorescence after incubation with test compounds, HeLa-GFP (2 μg/ml) is below 80% for CCOC(=O)c1ccccc1C1=C(CNC(=O)OC(C)(C)C)C(=O)c2ccccc2C1=O
OUT: class 0

IN: Please state whether Percent-GFP-fluorescence after incubation with test compounds, HeLa-GFP (2 μg/ml) is below 80% for CCCC12OC1(CCC)C(=O)c1ccccc1C2=O (stereo not shown)
OUT: class 1

IN: Please state whether Percent-GFP-fluorescence after incubation with test compounds, HeLa-GFP (2 μg/ml) is below 80% for CCOC(=O)C1=C(CC)C(=O)c2ccccc2C1=O
OUT: class 0

IN: Please state whether Percent-GFP-fluorescence after incubation with test compounds, HeLa-GFP (2 μg/ml) is below 80% for CCCC1=C(CC)C(=O)c2ccccc2C1=O
OUT: class 0

IN: Please state whether Percent-GFP-fluorescence after incubation with test compounds, HeLa-GFP (2 μg/ml) is below 80% for CC(C)=CCC1=C(O)C(=O)c2ccccc2C1=O [Compound Q4, lapachol, reference compound]
OUT: class 1

IN: Please state whether Percent-GFP-fluorescence after incubation with test compounds, HeLa-GFP (2 μg/ml) is below 80% for COC(=O)c1ccccc1C1=C(CNC(=O)OC(C)(C)C)C(=O)c2ccccc2C1=O
OUT: class 0

----------
Below is a list of entries, each paired with its recorded Percent-GFP-fluorescence after incubation with test compounds, M. avium-GFP (20 μg/ml) value.
System: M. avium-GFP (strain MAC104)
method: Toxicity assay with GFP-expressing M. avium
particulars: 20 μg/ml, 18 h incubation, relative to untreated bacteria
Return type: number; implicit unit %.

| compound | unit.annotation | readout.value |
| --- | --- | --- |
| CCCC1=C(CCC)C(=O)c2c(OC)cccc2C1=O [Compound Q19] | % | 73.0 |

IN: Requested read-out: Percent-GFP-fluorescence after incubation with test compounds, M. avium-GFP (20 μg/ml). Entry: CCCCCC1=C(C)C(=O)c2ccccc2C1=O [Compound Q9]
OUT: 85.0

IN: Requested read-out: Percent-GFP-fluorescence after incubation with test compounds, M. avium-GFP (20 μg/ml). Entry: O=C1c2ccccc2C(=O)C2(c3ccccc3)OC12c1ccccc1 (stereo not drawn) [Compound Q20]
OUT: 77.0

IN: Requested read-out: Percent-GFP-fluorescence after incubation with test compounds, M. avium-GFP (20 μg/ml). Entry: CCCCCCC1=CC(=O)c2ccccc2C1=O [Compound Q11]
OUT: 69.0

IN: Requested read-out: Percent-GFP-fluorescence after incubation with test compounds, M. avium-GFP (20 μg/ml). Entry: CCCCCCCC1=CC(=O)c2c(OC)cccc2C1=O [Compound Q18]
OUT: 127.0

IN: Requested read-out: Percent-GFP-fluorescence after incubation with test compounds, M. avium-GFP (20 μg/ml). Entry: CCOC(=O)c1ccc(C2=C(CNC(=O)OC(C)(C)C)C(=O)c3ccccc3C2=O)cc1 [Compound Q38]
OUT: 119.0

IN: Requested read-out: Percent-GFP-fluorescence after incubation with test compounds, M. avium-GFP (20 μg/ml). Entry: CCCC1=C(CCC)C(=O)c2ccccc2C1=O [Compound Q8]
OUT: 102.0

IN: Requested read-out: Percent-GFP-fluorescence after incubation with test compounds, M. avium-GFP (20 μg/ml). Entry: CC12OC1(c1ccccc1)C(=O)c1ccccc1C2=O (stereo not drawn) [Compound Q21]
OUT: 57.0

IN: Requested read-out: Percent-GFP-fluorescence after incubation with test compounds, M. avium-GFP (20 μg/ml). Entry: CCOC(=O)c1ccccc1C1=C(CN(C(=O)OC(C)(C)C)C(=O)OC(C)(C)C)C(=O)c2ccccc2C1=O [Compound Q35]
OUT: 108.0

----------
Tested on: M. avium-GFP (strain MAC104)
method: Toxicity assay with GFP-expressing M. avium
particulars: 20 μg/ml, 18 h incubation, relative to untreated bacteria
property.measured: Percent-GFP-fluorescence after incubation with test compounds, M. avium-GFP (20 μg/ml) (%)
Return type: number; implicit unit %.

Answered examples (5):
| compound | unit.annotation | readout.value |
| --- | --- | --- |
| CCOC(=O)c1ccc(C2=C(CN(C(=O)OC(C)(C)C)C(=O)OC(C)(C)C)C(=O)c3ccccc3C2=O)cc1 | % | 96.0 |
| CC1=CC(=O)c2ccccc2C1=O [Compound Q5, menadione, reference compound] | % | 69.0 |
| COC(=O)c1ccccc1C1=C(CNC(=O)OC(C)(C)C)C(=O)c2ccccc2C1=O | % | 80.0 |
| O=C1C=C(c2ccccc2)C(=O)c2ccccc21 | % | 35.0 |
| CC1=CC(=O)c2c(O)cccc2C1=O [Compound Q1, plumbagin, reference compound] | % | 7.0 |

IN: Observed Percent-GFP-fluorescence after incubation with test compounds, M. avium-GFP (20 μg/ml) on M. avium-GFP (strain MAC104) for COC(=O)c1ccccc1C1=C(CN(C(=O)OC(C)(C)C)C(=O)OC(C)(C)C)C(=O)c2ccccc2C1=O , please.
OUT: 74.0

IN: Observed Percent-GFP-fluorescence after incubation with test compounds, M. avium-GFP (20 μg/ml) on M. avium-GFP (strain MAC104) for CCCCCCC1=CC(=O)c2c(OC)cccc2C1=O , please.
OUT: 100.0

IN: Observed Percent-GFP-fluorescence after incubation with test compounds, M. avium-GFP (20 μg/ml) on M. avium-GFP (strain MAC104) for COc1ccc(CC(=O)n2nnc(C3=C(CO)C(=O)c4ccccc4C3=O)c2CO)cc1 , please.
OUT: 96.0

----------
Tested on: HeLa-GFP cells
method: HeLa-GFP fluorometric cytotoxicity assay
particulars: 2 μg/ml, 18 h incubation, relative to untreated (DMSO) cells
// NB: equality with 80% counts as -1; only Percent-GFP-fluorescence after incubation with test compounds, HeLa-GFP (2 μg/ml) strictly below is 1

| compound | label.class |
| --- | --- |
| O=C1C=C(CCCO)C(=O)c2ccccc21 | -1 |
| CCOC(=O)c1ccccc1C1=C(CN(C(=O)OC(C)(C)C)C(=O)OC(C)(C)C)C(=O)c2ccccc2C1=O | -1 |
| O=C1C=CC(=O)c2c(O)cccc21 | 1 |
| CCOC(=O)c1cccc(C2=C(CNC(=O)OC(C)(C)C)C(=O)c3ccccc3C2=O)c1 | -1 |
| CCCCC12OC1C(=O)c1ccccc1C2=O (centres unmarked) | 1 |
| CCOC(=O)c1cccc(C2=C(CN(C(=O)OC(C)(C)C)C(=O)OC(C)(C)C)C(=O)c3ccccc3C2=O)c1 | -1 |

IN: Please state whether Percent-GFP-fluorescence after incubation with test compounds, HeLa-GFP (2 μg/ml) is below 80% for CCOC(=O)C12OC1(CC)C(=O)c1ccccc1C2=O (centres unmarked)
OUT: 1

IN: Please state whether Percent-GFP-fluorescence after incubation with test compounds, HeLa-GFP (2 μg/ml) is below 80% for CCCCCCCC1=CC(=O)c2c(OC)cccc2C1=O
OUT: -1

IN: Please state whether Percent-GFP-fluorescence after incubation with test compounds, HeLa-GFP (2 μg/ml) is below 80% for O=C1C=C(c2ccccc2)C(=O)c2ccccc21
OUT: 1

IN: Please state whether Percent-GFP-fluorescence after incubation with test compounds, HeLa-GFP (2 μg/ml) is below 80% for CCCCCC1=CC(=O)c2ccccc2C1=O
OUT: -1

IN: Please state whether Percent-GFP-fluorescence after incubation with test compounds, HeLa-GFP (2 μg/ml) is below 80% for C[Si](C)(C)n1nnc(C2=C(CO)C(=O)c3ccccc3C2=O)c1CO
OUT: -1

IN: Please state whether Percent-GFP-fluorescence after incubation with test compounds, HeLa-GFP (2 μg/ml) is below 80% for CCCCC12OC1(c1ccccc1)C(=O)c1ccccc1C2=O (centres unmarked)
OUT: 1

IN: Please state whether Percent-GFP-fluorescence after incubation with test compounds, HeLa-GFP (2 μg/ml) is below 80% for CCCC1=C(CCC)C(=O)c2ccccc2C1=O
OUT: -1

IN: Please state whether Percent-GFP-fluorescence after incubation with test compounds, HeLa-GFP (2 μg/ml) is below 80% for CC1=CC(=O)c2ccccc2C1=O [Compound Q5, menadione, reference compound]
OUT: 1

IN: Please state whether Percent-GFP-fluorescence after incubation with test compounds, HeLa-GFP (2 μg/ml) is below 80% for CC1=CC(=O)c2c(O)cccc2C1=O [Compound Q1, plumbagin, reference compound]
OUT: 1
